- System: Vero E6 infected with SARS-CoV-2
- method: morphology score (similarity to uninfected cells); higher = more like uninfected cells
- condition-info: 24 h
Measured morphology score values are reported for all entries that follow.
quantity-measured: morphology score

O[C@H]1CC[C@H](Nc2ncc3nc(Nc4c(F)cc(F)cc4F)n([C@H]4CCOC4)c3n2)CC1 (0.833333 µM); 0.103
CC(C)(C)c1cc(/C=C(\C#N)C(N)=S)cc(C(C)(C)C)c1O [tyrphostin-AG-879] (0.833333 µM); 0.166
CC[C@H](c1ccc(O)cc1)[C@@H](CC)c1ccc(O)cc1 [hexestrol] (10 µM); 0.143
Nc1nc(NC2CC2)cc(-c2cccc(Cl)c2Cl)n1 (10 µM); 0.121

* * *

Measured inhibition of SARS-CoV-2 cytopathic effect values are reported for all entries that follow.
- Test system: Vero E6 infected with SARS-CoV-2
- method: inhibition of SARS-CoV-2 cytopathic effect; higher = more antiviral protection, active = above 15
- condition-info: 1 nM; 48 h
quantity-measured: inhibition of SARS-CoV-2 cytopathic effect

Cc1cc(C2CCCCC2)n(O)c(=O)c1; 0.88% (inactive)
CCOC(=O)[C@H](C)C[C@@H](Cc1ccc(-c2ccccc2)cc1)NC(=O)CCC(=O)O; -3.45% (inactive)
COc1cc(C#N)ccc1S(=O)(=O)Nc1ccc2c(c1)cc(C)c(=O)n2C; -2.94% (inactive)
CCN(CC)CCNC(=O)COc1ccc(OC)cc1 [mefexamide]; 1.84% (inactive)
Cc1ccc(-c2ncn(-c3ccc(Nc4nccc(-c5cccc(N6CCOCC6)c5)n4)cc3)n2)cn1; -4.9% (inactive)
NC(=O)CN1CCCC1=O; 0.23% (inactive)
Nc1ncnc2nc(-c3ccc(N4CCOCC4)nc3)cc(-c3cccc(Br)c3)c12; -0.77% (inactive)
CCOC(=O)c1ccc(N(C)c2csc(-c3ccccc3)n2)cc1; -0.18% (inactive)
CCOc1ccc(NC(C)=O)cc1; 0.72% (inactive)
CN(C)CC[C@@](O)(c1ccccc1)c1ccccc1Cl; 1.53% (inactive)

* * *

Measured inhibition of SARS-CoV-2 cytopathic effect values are reported for all entries that follow.
- Tested on: Vero E6 infected with SARS-CoV-2
- method: inhibition of SARS-CoV-2 cytopathic effect; higher = more antiviral protection, active = above 15
- condition-info: 10000 nM; 48 h
quantity-measured: inhibition of SARS-CoV-2 cytopathic effect (%)

CN(C)CCC=C1c2ccccc2C=Cc2ccccc21 [cyclobenzaprine]; -6.67
Cc1cc2c(C(N)=O)cccc2n1-c1nc2c(c(NCc3ccccc3)n1)COCC2; -31.7
O=C1c2ccc(Nc3ccc(F)cc3F)cc2CCc2ccc(OC[C@H](O)CO)cc21 [skepinone-L]; -9.5
CS(=O)(=O)c1ccc(-c2cnc(N)c(C(=O)Nc3ccccc3)n2)cc1; 2.65
CCC(CC)COC(=O)[C@H](C)N[P@](=O)(OC[C@H]1O[C@@](C#N)(c2ccc3c(N)ncnn23)[C@H](O)[C@@H]1O)Oc1ccccc1 [Remdesivir]; 9.79
CC(=O)Nc1cccc(O)c1 [metacetamol]; 4.76
COc1cc2c(cc1OC)CN(C(=O)[C@@H](NCc1ccncc1)C(C)(C)C)CC2; 1.19
COc1ccc([C@@H]2CC(=O)c3c(O)cc(O)cc3O2)cc1O [hesperetin]; 0.11
c1cc(-c2sc(-c3ccncc3)c(-c3ccncc3)c2-c2ccncc2)ccn1; -5.36
CC(CC(C(N)=O)(c1ccccc1)c1ccccc1)N(C)C (centres undefined) [aminopentamide]; -0.57
Cc1c(O)c(=O)n(-c2ccccc2)n1C [4-hydroxy-phenazone]; -2.04
CCNCCS(=O)(=O)NC[C@@]1(c2ccccc2)SC(NC(=O)C(C)(C)C)=NN1C(=O)C(C)(C)C [litronesib]; 0.39
CC(/C=C1\SC(=S)N(CC(=O)O)C1=O)=C\c1ccccc1 [epalrestat]; -0.07
CCC(=O)O[C@]1(C(=O)CCl)[C@@H](C)C[C@H]2[C@@H]3CCC4=CC(=O)C=C[C@]4(C)[C@@]3(F)[C@@H](O)C[C@@]21C [clobetasol-propionate]; 3.52
N#Cc1cn([C@@H]2O[C@H](CO)[C@@H](O)[C@H]2O)c2ncnc(N)c12 [toyocamycin]; -0.24
NC(=O)N1c2ccccc2CC(O)c2ccccc21 (centres undefined) [licarbazepine]; 0.95
O=S(=O)(O)c1cc(I)c(O)c2ncccc12 [chiniofon]; -0.39
NC(=O)c1cn(Cc2c(F)cccc2F)nn1 [rufinamide]; 3.51
O=C(O)P(=O)(O)O [foscarnet]; 0.71

* * *

- System: Vero E6 infected with SARS-CoV-2
- method: inhibition of SARS-CoV-2 cytopathic effect; higher = more antiviral protection, active = above 15
- condition-info: 10000 nM; 48 h
Measured inhibition of SARS-CoV-2 cytopathic effect values are reported for all entries that follow.
quantity-measured: inhibition of SARS-CoV-2 cytopathic effect

CCCCCCCCCCCCC/C=C/[C@@H](O)[C@@H](N)CO[P@](=O)(O)OCC[N+](C)(C)C [sphingosylphosphorylcholine]; 3.54% (inactive)
C[C@H]1NCc2cc(-c3ccc4c(=O)c(C(=O)O)cn(C5CC5)c4c3OC(F)F)ccc21 [garenoxacin]; 1.04% (inactive)
O=S(=O)(O)Oc1ccc(C(c2ccc(OS(=O)(=O)O)cc2)c2ccccn2)cc1 [sodium-picosulfate]; -5.74% (inactive)
NCC(O)(CS(=O)(=O)O)c1ccc(Cl)cc1 (stereo unspecified) [2-hydroxysaclofen]; 0.53% (inactive)
CSCC[C@H](NC(=O)[C@H](Cc1ccccc1)NC(=O)CNC(=O)CNC(=O)[C@@H](N)Cc1ccc(O)cc1)C(=O)O [metenkephalin]; -5.57% (inactive)
CCN1C[C@]2(COC(=O)c3ccccc3N3C(=O)C[C@H](C)C3=O)CC[C@H](OC)[C@@]34[C@@H]5C[C@H]6[C@H](OC)[C@@H]5[C@](O)(C[C@@H]6OC)[C@](O)([C@@H](OC)[C@H]23)[C@@H]14 [methyllycaconitine]; -1.4% (inactive)

* * *

- Test system: Vero E6 infected with SARS-CoV-2
- method: inhibition of SARS-CoV-2 cytopathic effect; higher = more antiviral protection, active = above 15
- condition-info: 833.33 nM; 48 h
Measured inhibition of SARS-CoV-2 cytopathic effect values are reported for all entries that follow.
quantity-measured: inhibition of SARS-CoV-2 cytopathic effect (%)

CN1C[C@H](C(=O)N[C@]2(C)O[C@@]3(O)[C@@H]4CCCN4C(=O)[C@H](Cc4ccccc4)N3C2=O)C[C@@H]2c3cccc4[nH]cc(c34)C[C@H]21 [dihydroergotamine]; -0.8
CC(C)c1c2cc(-c3ccnc(N[C@H]4CC[C@H](NC5CCOCC5)CC4)n3)ccc2nn1C; -20.8
CO[C@H]1C[C@@H]2CC[C@@H](C)[C@@](O)(O2)C(=O)C(=O)N2CCCC[C@H]2C(=O)O[C@H]([C@H](C)C[C@@H]2CC[C@H](n3cnnn3)[C@H](OC)C2)CC(=O)[C@H](C)/C=C(\C)[C@@H](O)[C@@H](OC)C(=O)[C@H](C)C[C@H](C)/C=C/C=C/C=C/1C; -2.21
Cc1c2oc3c(C)ccc(C(=O)N[C@@H]4C(=O)N[C@@H](C(C)C)C(=O)N5CCC[C@H]5C(=O)N(C)CC(=O)N(C)[C@@H](C(C)C)C(=O)O[C@@H]4C)c3nc-2c(C(=O)N[C@@H]2C(=O)N[C@@H](C(C)C)C(=O)N3CCC[C@H]3C(=O)N(C)CC(=O)N(C)[C@@H](C(C)C)C(=O)O[C@@H]2C)c(N)c1=O; -8.47
O=C(OCCN1CCCCC1)c1c[nH]c2ccccc12; -1.42
O=C(O)/C=C1\CCCc2ccccc2[C@H]1O (racemic); 1.72
CCCCCCN(CCCCCC)C(=O)Cc1c(-c2ccc(F)cc2)[nH]c2ccccc12; 0.72
COc1cc2c(cc1OC)[C@@H]1Cc3ccc(OC)c(OC)c3CN1CC2; 4.97
Cc1cc(-c2nc(-c3ccc(OC(F)(F)F)cc3)no2)nn1Cc1ccnc(N2CCN(C3CC3)CC2)c1; 0.7
CCn1cc(C(=O)O)c(=O)c2cc(F)c(N3CCNCC3)nc21; -2.16
CCOc1ccc(NC(C)=O)cc1; 0.87
C=C(C)[C@@H]1CC[C@]2(CO)CC[C@]3(C)[C@H](CC[C@@H]4[C@@]5(C)CC[C@H](O)C(C)(C)[C@@H]5CC[C@]43C)[C@@H]12; -9.2
CO[C@@]1(NC(=O)C(C(=O)O)c2ccc(O)cc2)C(=O)N2C(C(=O)O)=C(CSc3nnnn3C)CO[C@@H]21 (stereo partly drawn); -1.15
Cc1cc(OCCN2CCOCC2)nn1-c1ccc2ccccc2c1; 0.03
Cc1c(-c2ccnn2C)cc(C(=O)NCc2ccc(S(C)(=O)=O)cn2)c(=O)n1-c1cccc(C(F)(F)F)c1; -2.96
CCN(CC)CCOc1ccc(Nc2ncc3cc(-c4c(Cl)cccc4Cl)c(=O)n(C)c3n2)cc1; -9.61
C[N+](C)(C)CCOC(N)=O; 2.68
C[C@]12COC(=O)C[C@@H]1CC[C@@H]1[C@@H]2CC[C@@]2(C)[C@H]1CC[C@]2(C)O; -0.56
CCCCCCCCN=c1ccn(CCCCCCCCCCn2ccc(=NCCCCCCCC)cc2)cc1; -7.17
COc1cc2ncnc(Nc3ccc(Cl)cc3F)c2cc1OC; -5
CCCN(CC1CC1)c1nc(C)nc(Nc2c(Cl)cc(Cl)cc2Cl)c1Cl; 0.09
O=c1[nH]c2ccccc2n1CCCN1CCC(n2c(=O)[nH]c3cc(Cl)ccc32)CC1; 2.23
COc1ccc(CC(=O)NC(/N=C(\NC#N)Nc2cccc3ncccc23)C(C)(C)C)cc1OC (stereo not drawn); 1.34
CC(C)CNc1ccnc(NCc2csc(-c3ccccc3)n2)n1; 0.39
N#Cc1ccc2[nH]c(O)c(-c3ccc(CN4CCOCC4)cn3)c2c1; 4.77
CCOC(=O)c1ccc(O)cc1; 0.24
C[C@@H]1C[C@H]2[C@@H]3C[C@H](F)C4=CC(=O)C=C[C@]4(C)[C@@]3(F)[C@@H](O)C[C@]2(C)[C@@]1(O)C(=O)CO; 0.62
C=CCN1CC[C@]23c4c5ccc(O)c4O[C@H]2C(=O)CC[C@@]3(O)[C@H]1C5; 3.34
NC(=O)c1nc(F)cnc1O [favipiravir]; 0.84
CN(c1ncccc1CNc1nc(Nc2ccc3c(c2)CC(=O)N3)ncc1C(F)(F)F)S(C)(=O)=O; -2.48
CCCN[C@@H]1CCc2c(OC)cccc2[C@@H]1C; -0.17
O=C1NCCN1CCN1CCC(c2cn(-c3ccc(F)cc3)c3ccc(Cl)cc23)CC1; -5.98
C[N+](C)(C)CCOP(=O)(O)OC[C@H](O)CO [choline-alfoscerate]; -1.31

Reference source for all entries: the supplement of paper PMC13380429
